- TARGET OR TEST SYSTEM: unspecific peroxygenase (UPO) PaDa-I (Cyclocybe aegerita, UniProt B9W4V6, F354L/I291V/L110F/V100A/V118I)
- Construct: gene APO1; laboratory-evolved variant PaDa-I, heterologously expressed and purified
- TEST METHOD NOTES: inhibition of catalase activity (O2 production, Clark electrode); substrate consumption by HPLC
- Assay type: biochemical
ASSAY METRIC: pKi
Answers are plain numbers, as −log10 of the molar value.

I would be grateful if you could share the reported pKi for OCCOCc1ccccc1 [2-(benzyloxy)ethanol] . 3.41

----------
- TARGET OR TEST SYSTEM: unspecific peroxygenase (UPO) PaDa-I (Cyclocybe aegerita, UniProt B9W4V6, F354L/I291V/L110F/V100A/V118I)
- Construct: gene APO1; laboratory-evolved variant PaDa-I, heterologously expressed and purified
- TEST METHOD NOTES: inhibition of NBD peroxygenation (Michaelis-Menten kinetics); also uncompetitive inhibition of ABTS peroxidation
- Assay type: biochemical
ASSAY METRIC: Ki (mM)
Answers are plain numbers, in mM.

I would be grateful if you could share the reported Ki for O=C(O)COCc1ccccc1 [benzyloxyacetate] . 3.45
